Each entry below carries its recorded pIC50.
- Target Desc: human EP3 receptor (Homo sapiens, UniProt P43115)
- Construct: expressed in transfected cells; host or cells: CHO K1 (Chinese Hamster Ovary), stably co-transfected with Galpha16 and mitochondrial clytin
- Measurement Notes: Cellular in vitro assay for determining EP3 receptor activity (human EP3 cell line, sulprostone-stimulated calcium luminescence)
- Format: cell-based
- Condition: CHO cells expressing human EP3 and mitochondrial Clytin; antagonist mode, sulprostone at EC50; read-out: EP3 CHO mtCLY ANTAG IC50
pIC50: −log10 of the molar value.
Recorded Metric: pIC50

>>> reported_value("O=C(NCC(O)C(F)(F)F)c1nn2cc(-c3ccc4c(c3)OCCO4)[nH]c(=O)c2c1C(F)(F)F (single isomer, unassigned) [6-533]")
8.26
>>> reported_value("CC(NC(=O)c1nn2cc(-c3ccc4ccccc4c3)[nH]c(=O)c2c1C(F)(F)F)c1cnc(OCC(F)(F)F)cn1 (stereo not shown)")
8.86
>>> reported_value("CC(C)(C)CNC(=O)c1cc2c(=O)[nH]c(-c3ccc4ccccc4c3)cn2n1")
8.15
>>> reported_value("CC(=O)N1CC(NC(=O)c2cc3c(=O)[nH]c(-c4ccc5ccccc5c4)cn3n2)(c2ccc(F)cc2)C1")
8.35
>>> reported_value("Cc1cc(C)nc(CNC(=O)c2nn3cc(-c4cnc5cccc(C)c5c4)[nH]c(=O)c3c2C(C)C)n1")
8.68
>>> reported_value("COc1ccc(C(C)NC(=O)c2cc3c(=O)[nH]c(-c4ccc5ccccc5n4)cn3n2)cn1 (stereo not shown)")
8.25
>>> reported_value("Cc1c(C(=O)NC(C)c2ccc(S(N)(=O)=O)cc2)nn2c(C)c(-c3ccc4ccccc4c3)[nH]c(=O)c12 (stereo not shown)")
8.43
>>> reported_value("Cc1ccc(-c2cn3nc(C(=O)NC(C(C)C)C(O)C(F)(F)F)cc3c(=O)[nH]2)cc1C (stereo not shown)")
8.15
>>> reported_value("O=C(NCc1cc(F)cc(F)c1)c1cc2c(=O)[nH]c(-c3ccc4ccccc4c3)cn2n1")
8.59
>>> reported_value("CCCc1c(C(=O)N[C@H](C)c2ccc(F)cc2)nn2cc(-c3ccc(C)c(C)c3)[nH]c(=O)c12")
9.09
>>> reported_value("COc1ccc(C(C)NC(=O)c2nn3cc(-c4ccc5ccccc5c4)[nH]c(=O)c3c2C#N)cc1 (stereo not shown)")
8.73
>>> reported_value("Cc1ccc(-c2cn3nc(C(=O)NC4(c5ccc(F)cc5)CN(C)C4)c(C4CC4)c3c(=O)[nH]2)cc1Cl")
8.55
>>> reported_value("CC[C@@H](NC(=O)c1nn2cc(-c3cnc4cccc(C)c4c3)[nH]c(=O)c2c1C(C)C)c1ccccc1")
8.40

###

Each entry below carries its recorded IC50.
- Target Desc: human EP3 receptor (Homo sapiens, UniProt P43115)
- Sequence (P43115 1-390): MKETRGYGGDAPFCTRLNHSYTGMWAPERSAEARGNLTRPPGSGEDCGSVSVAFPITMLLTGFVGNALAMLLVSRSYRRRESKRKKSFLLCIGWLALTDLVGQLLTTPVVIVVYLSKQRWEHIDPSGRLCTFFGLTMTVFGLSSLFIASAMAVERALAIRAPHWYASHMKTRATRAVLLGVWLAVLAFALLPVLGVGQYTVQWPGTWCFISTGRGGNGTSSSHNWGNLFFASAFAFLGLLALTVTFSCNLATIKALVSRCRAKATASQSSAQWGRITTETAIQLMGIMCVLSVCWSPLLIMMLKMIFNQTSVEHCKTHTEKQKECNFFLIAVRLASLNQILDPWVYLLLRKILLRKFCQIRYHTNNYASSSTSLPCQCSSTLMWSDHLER
- Measurement Notes: Cellular in vitro assay for determining EP3 receptor activity (human EP3 cell line, sulprostone-stimulated calcium luminescence)
- Condition: CHO cells expressing human EP3 and mitochondrial Clytin; antagonist mode, sulprostone at EC50; read-out: EP3 CHO mtCLY ANTAG IC50
Recorded Metric: IC50

>>> reported_value("Cc1ccc(-c2cn3nc(C(=O)NC(c4ccc(F)cc4)C(F)(F)CO)cc3c(=O)[nH]2)cc1C (racemic)")
"1.95 nM"
>>> reported_value("Cc1ccc(-c2cn3nc(C(=O)NCc4ccccc4)cc3c(=O)[nH]2)cc1C")
"4 nM"
>>> reported_value("Cc1cccc2ncc(-c3cn4nc(C(=O)NC5(c6ccccc6)CC5)c(C(C)C)c4c(=O)[nH]3)cc12")
"0.84 nM"
>>> reported_value("Cc1ccc(-c2cn3nc(C(=O)NC(C)CN4CCOCC4)c(C4CC4)c3c(=O)[nH]2)cc1C (single isomer, unassigned) [6-452]")
"6.2 nM"
>>> reported_value("CC(C)(O)[C@@H](NC(=O)c1cc2c(=O)[nH]c(-c3ccc4ccccc4c3)cn2n1)c1ccccc1")
"0.653 nM"
>>> reported_value("COC(=O)C(NC(=O)c1cc2c(=O)[nH]c(-c3ccc4ccccc4c3)cn2n1)c1ccc(F)cc1 (stereo not shown)")
"3.75 nM"
>>> reported_value("Cc1ccc(-c2cn3nc(C(=O)NCC(O)C(F)(F)F)c(C(F)(F)F)c3c(=O)[nH]2)cc1C (racemic) [6-115]")
"0.95 nM"
